ASSAY TARGET: SARS-COV-2 RBD extracellular domain expressed with a C-terminal mouse IgG2a Fc (SARS-CoV-2)
EXPERIMENTAL DETAILS: Biacore SPR, mAb captured on anti-hFc, 25 C
OUTCOME MEASURE: koff (s⁻¹)
Give bare numbers, in s⁻¹.

Exam item: Give the value of koff reported for the following: mAb14281 (antibody, V domains shown) VH: QVQLVQSGADVKKPGASVKVSCKTSGYIFTGYYIHWVRQAPGQGLEWMGWINPNSGGTNSAQKFQGRVTMTRDTSISTVYMELSRLRSDDTAVYYCAKSNSFSVLDYNFDYWGQGTLVTVSS VL: SSELTQDPAVSVALGQTVRITCQGDSLRSYYASWYQQKPGQAPVLVIYDKNNRPSGIPDRFSGSSSGNTASLTITGAQAEDEADYYCNSRDSSRNHLVVFGGGTKLTVLG
Marked response: 0.000213
